Biological target: myeloperoxidase (MPO) (Homo sapiens)
Assay: MPO chlorination assay (APF assay)
Type: biochemical
pIC50: −log10 of the molar value.
parameter-measured: pIC50

>>> result_value("Nc1cc(OCc2c(Cl)cccc2Cl)c2nn[nH]c2n1 [Example 234]")
"7.00 to 9.00"

---

Biological target: myeloperoxidase (MPO) (Homo sapiens, UniProt P05164)
Sequence (P05164 49-745): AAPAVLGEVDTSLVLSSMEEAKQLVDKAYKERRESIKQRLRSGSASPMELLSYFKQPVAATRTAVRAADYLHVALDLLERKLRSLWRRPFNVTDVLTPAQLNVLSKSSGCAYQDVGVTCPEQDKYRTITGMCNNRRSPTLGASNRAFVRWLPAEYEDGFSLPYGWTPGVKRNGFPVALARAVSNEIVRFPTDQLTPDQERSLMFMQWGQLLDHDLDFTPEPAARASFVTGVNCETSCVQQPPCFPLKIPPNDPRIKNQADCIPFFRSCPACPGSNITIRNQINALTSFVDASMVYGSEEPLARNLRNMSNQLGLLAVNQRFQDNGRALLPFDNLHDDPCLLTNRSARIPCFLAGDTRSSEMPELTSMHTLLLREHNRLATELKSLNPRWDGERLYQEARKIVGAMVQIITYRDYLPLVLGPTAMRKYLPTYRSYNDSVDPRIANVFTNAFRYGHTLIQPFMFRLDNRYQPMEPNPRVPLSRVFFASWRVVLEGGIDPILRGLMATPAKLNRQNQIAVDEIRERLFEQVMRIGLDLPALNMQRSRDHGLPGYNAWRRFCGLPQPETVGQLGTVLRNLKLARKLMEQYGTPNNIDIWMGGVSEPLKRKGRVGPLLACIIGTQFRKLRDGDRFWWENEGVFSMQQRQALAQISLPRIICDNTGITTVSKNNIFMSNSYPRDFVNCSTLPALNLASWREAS
Test: MPO peroxidation assay (Amplex Red assay)
Format: biochemical
Details: MPO peroxidation, potency range class; read-out: Amplex Red IC50
Counter-ions that a name gives are not always drawn.
parameter-measured: IC50

>>> result_value("N#Cc1ccc(OC2CC2)cc1COc1cc(N)nc2[nH]nnc12")
"1 to 100 nM"
>>> result_value("Nc1cc(OCc2ccc(-c3ccccc3Cl)cc2)c2nn[nH]c2n1")
"101 to 999 nM"
>>> result_value("CC(C)Oc1ccc(-c2ccc(COc3cc(N)nc4[nH]nnc34)c(OC(F)(F)F)c2)cn1")
"101 to 999 nM"
>>> result_value("Nc1cc(OCc2cccc(Br)c2)c2nn[nH]c2n1")
"1 to 100 nM"
>>> result_value("Nc1cc(OCc2cc(C(=O)NC3CC3)ccc2Cl)c2nn[nH]c2n1")
"1 to 100 nM"
>>> result_value("CN(C(=O)c1ccc(Cl)c(COc2cc(N)nc3[nH]nnc23)c1)c1ccccc1")
"1 to 100 nM"
>>> result_value("Nc1cc(OCc2ccccc2S(N)(=O)=O)c2nn[nH]c2n1 [Example 230, TFA]")
"101 to 999 nM"
>>> result_value("COc1cc(Cl)c(Cl)cc1COc1cc(N)nc2[nH]nnc12")
"1 to 100 nM"
>>> result_value("Nc1cc(OCc2ccc(C(=O)NCc3ccccc3Cl)cc2Cl)c2nn[nH]c2n1")
"1 to 100 nM"
>>> result_value("Nc1cc(OCc2cccc(-c3ccn(Cc4ccccc4)n3)c2)c2nn[nH]c2n1")
"101 to 999 nM"
>>> result_value("N#Cc1cc(-c2ccc(N3CCCCC3)nc2)ccc1COc1cc(N)nc2[nH]nnc12")
"101 to 999 nM"
>>> result_value("CN(C)S(=O)(=O)c1ccccc1-c1ccc(COc2cc(N)nc3[nH]nnc23)c(Cl)c1")
"1 to 100 nM"
>>> result_value("CS(=O)(=O)c1ccc(Cl)cc1COc1cc(N)nc2[nH]nnc12")
"1 to 100 nM"
>>> result_value("Nc1cc(OCc2cccc(-c3ccc(Cl)cc3)c2)c2nn[nH]c2n1")
"101 to 999 nM"
>>> result_value("Nc1cc(OCc2cc(C(=O)NC3(CO)CCCC3)ccc2F)c2nn[nH]c2n1")
"101 to 999 nM"
>>> result_value("Nc1cc(OCc2cc(C(=O)NC3CC3)ccc2F)c2nn[nH]c2n1")
"1 to 100 nM"
>>> result_value("CN(CC(N)=O)C(=O)c1ccc(Cl)c(COc2cc(N)nc3[nH]nnc23)c1")
"101 to 999 nM"
>>> result_value("Nc1cc(OCc2ccc(C(=O)NCc3cccnc3)cc2Cl)c2nn[nH]c2n1")
"1 to 100 nM"
